Test system: human neonatal dermal fibroblasts (NDF)
Experiment: Resazurin viability assay, senescent vs proliferating/quiescent human neonatal dermal fibroblasts
Type: cell-based
Settings: Homo sapiens, Fibroblast, 72 h, senescent NDF, bleomycin-induced; 72 hour exposure; resazurin; read-out: IC50 NDFsen.bleo
MEASUREMENT NAME: IC50

- COMPOUND: "COc1ccc(C2CC(=NO)c3c(SCc4ccccc4)sc(C(=O)NCc4cccc(F)c4)c3C2)cc1 (stereo not drawn) [Example A1.6]"
  VALUE MEASURED: "< 5 µM"
- COMPOUND: "O/N=C1\\CC(c2ccccc2)Cc2nc(NCc3ccccc3)sc21 (stereo not drawn) [Example A4.2]"
  VALUE MEASURED: "< 15 µM"
- COMPOUND: "COc1ccc(C2C/C(=N\\O)c3c(SCc4ccccc4)sc(C(=O)NCc4ccco4)c3C2)cc1 (stereo not drawn) [Example A1.15]"
  VALUE MEASURED: "< 5 µM"
- COMPOUND: "O/N=C1\\CC(c2ccccc2)Cc2nc(NCCOc3ccccc3)ncc21 (stereo not drawn) [Example A2.2]"
  VALUE MEASURED: "< 2.5 µM"
- COMPOUND: "COc1ccc(C2C/C(=N\\O)c3sc(NC(=O)COc4ccc(C)cc4)nc3C2)cc1 (stereo not drawn) [Example A4.1]"
  VALUE MEASURED: "< 5 µM"
- COMPOUND: "CCOC(=O)c1sc(Sc2ccccc2)c2c1CC(c1ccc(OC)cc1)C/C2=N\\O (stereo not drawn) [Example A1.5]"
  VALUE MEASURED: "< 10 µM"
- COMPOUND: "N#Cc1cc2c(nc1SCc1ccccc1)CC(c1ccccc1)C/C2=N\\O (stereo not drawn) [Example A3.2]"
  VALUE MEASURED: "< 15 µM"
- COMPOUND: "COc1ccc(C2C/C(=N\\O)c3c(SCc4ccccc4)sc(C(=O)NCc4ccccc4)c3C2)cc1 (stereo not drawn) [Example A1.14]"
  VALUE MEASURED: "< 5 µM"
- COMPOUND: "CCOC(=O)c1sc(SCc2ccccc2)c2c1C(c1ccc(OC)cc1)CC/C2=N\\O (stereo not drawn) [Example A1.9]"
  VALUE MEASURED: "< 20 µM"

* * *

Test system: human neonatal dermal fibroblasts (NDF)
Assay: Resazurin viability assay, senescent vs proliferating/quiescent human neonatal dermal fibroblasts
Format: cell-based
Details: Homo sapiens, Fibroblast, NDF; senescence induction: Etoposide; read-out: Activity against Senescent Cells (IC50; uM)

- COMPOUND: "CCOC(=O)c1sc(SCc2ccccc2)c2c1CC(c1ccc(OC)cc1)C/C2=N\\O (stereo not shown)"
  IC50: "3.8 µM"

* * *

System: AdMSC primary adipose-derived mesenchymal stromal cells
Assay: Anti-senescent cytotoxicity, senescent vs proliferating AdMSC
Format: cell-based, Human
Conditions: Homo sapiens; AdMSC; senescence induction: Bleomycin; read-out: Activity against Senescent Cells (IC50; uM)

- MOLECULE: "CCOC(=O)c1sc(SCc2ccccc2)c2c1CC(c1ccc(OC)cc1)C/C2=N\\O (stereo not shown)"
  IC50: "5.6 µM"

* * *

Test system: adult rat dermal fibroblasts (RDF)
Assay: Resazurin viability assay, senescent vs proliferating rat dermal fibroblasts
Type: cell-based
Settings: Rattus norvegicus, Fibroblast; RDF; senescence induction: Bleomycin; read-out: Activity against Senescent Cells (IC50; uM)
MEASUREMENT NAME: IC50

- MOLECULE: "CCOC(=O)c1sc(SCc2ccccc2)c2c1CC(c1ccc(OC)cc1)C/C2=N\\O (stereo not shown) [Example A1.1]"
  VALUE MEASURED: "4.4 µM"
